- Tested on: STAT5b-GyrB fusion proteins
- details: Table 3, Example 2; 900 pM; 1×10^4 cells/well
recorded metric: Prolif. (cpm)
Please respond with the number in cpm and leave the unit unwritten.

Item COC1C(OC(=O)c2ccc(C)[nH]2)C(O)C(Oc2ccc3c(O)c(NC(=O)c4ccc(C(=O)Nc5c(O)c6ccc(OC7OC(C)(C)C(OC)C(OC(=O)c8ccc(C)[nH]8)C7O)c(C)c6oc5=O)nc4)c(=O)oc3c2C)OC1(C)C (stereo not drawn) with STAT5b-GyrB fusion proteins - Prolif. (cpm)? 16313

Same for COC1C(OC(=O)c2ccc(C)[nH]2)C(O)C(Oc2ccc3c(O)c(NC(=O)c4ccc(C(=O)Nc5c(O)c6ccc(OC7OC(C)(C)C(OC)C(OC(=O)c8ccc(C)[nH]8)C7O)c(C)c6oc5=O)cc4)c(=O)oc3c2C)OC1(C)C (stereo not drawn) 17973

Same for COC1C(OC(=O)c2ccc(C)[nH]2)C(O)C(Oc2ccc3c(O)c(NC(=O)c4cc(C(=O)Nc5c(O)c6ccc(OC7OC(C)(C)C(OC)C(OC(=O)c8ccc(C)[nH]8)C7O)c(C)c6oc5=O)[nH]n4)c(=O)oc3c2C)OC1(C)C (stereo not drawn) 16520

Same for COC1C(OC(=O)c2ccc(C)[nH]2)C(O)C(Oc2ccc3c(O)c(NC(=O)c4cncc(C(=O)Nc5c(O)c6ccc(OC7OC(C)(C)C(OC)C(OC(=O)c8ccc(C)[nH]8)C7O)c(C)c6oc5=O)c4)c(=O)oc3c2C)OC1(C)C (stereo not drawn) 20204

Same for COC1C(OC(=O)c2ccc(C)[nH]2)C(O)C(Oc2ccc3c(O)c(NC(=O)c4ccc(C(=O)Nc5c(O)c6ccc(OC7OC(C)(C)C(OC)C(OC(=O)c8ccc(C)[nH]8)C7O)c(C)c6oc5=O)s4)c(=O)oc3c2C)OC1(C)C (stereo not drawn) 16826

Same for COC1C(OC(=O)c2ccc(C)[nH]2)C(O)C(Oc2ccc3c(O)c(NC(=O)c4c[nH]c(C(=O)Nc5c(O)c6ccc(OC7OC(C)(C)C(OC)C(OC(=O)c8ccc(C)[nH]8)C7O)c(C)c6oc5=O)c4C)c(=O)oc3c2C)OC1(C)C (stereo not drawn) 18071

----------
- Test system: STAT5b-GyrB fusion proteins
- details: Table 3, Example 2; 900 nM
recorded metric: Prolif. (cpm)
Please respond with the number in cpm and leave the unit unwritten.

compound	experimental target	recorded metric	recorded result
COC1C(OC(=O)c2ccc(C)[nH]2)C(O)C(Oc2ccc3c(O)c(NC(=O)c4c[nH]c(C(=O)Nc5c(O)c6ccc(OC7OC(C)(C)C(OC)C(OC(=O)c8ccc(C)[nH]8)C7O)c(C)c6oc5=O)c4C)c(=O)oc3c2C)OC1(C)C (centres unmarked)	STAT5b-GyrB fusion proteins	Prolif. (cpm)	30752

# next compound below
Item COC1C(OC(=O)c2ccc(C)[nH]2)C(O)C(Oc2ccc3c(O)c(NC(=O)c4ccc(C(=O)Nc5c(O)c6ccc(OC7OC(C)(C)C(OC)C(OC(=O)c8ccc(C)[nH]8)C7O)c(C)c6oc5=O)nc4)c(=O)oc3c2C)OC1(C)C (centres unmarked) with STAT5b-GyrB fusion proteins - Prolif. (cpm)? 22824

----------
Item-by-item account of Prolif. (cpm)
- Test system: STAT5b-GyrB fusion proteins
- details: Table 3, Example 2; 900 nM
Please respond with the number in cpm and leave the unit unwritten.

Some compounds with known Prolif. (cpm) results, for comparison:
compound	recorded result
COC1C(OC(=O)c2ccc(C)[nH]2)C(O)C(Oc2ccc3c(O)c(NC(=O)c4ccc(C(=O)Nc5c(O)c6ccc(OC7OC(C)(C)C(OC)C(OC(=O)c8ccc(C)[nH]8)C7O)c(C)c6oc5=O)s4)c(=O)oc3c2C)OC1(C)C (stereo not shown) [Cmpd 9]	22210
COC1C(OC(=O)c2ccc(C)[nH]2)C(O)C(Oc2ccc3c(O)c(NC(=O)c4cc(C(=O)Nc5c(O)c6ccc(OC7OC(C)(C)C(OC)C(OC(=O)c8ccc(C)[nH]8)C7O)c(C)c6oc5=O)[nH]n4)c(=O)oc3c2C)OC1(C)C (stereo not shown) [Cmpd 7]	20619
COC1C(OC(=O)c2ccc(C)[nH]2)C(O)C(Oc2ccc3c(O)c(NC(=O)c4cncc(C(=O)Nc5c(O)c6ccc(OC7OC(C)(C)C(OC)C(OC(=O)c8ccc(C)[nH]8)C7O)c(C)c6oc5=O)c4)c(=O)oc3c2C)OC1(C)C (stereo not shown) [Cmpd 4]	22817

# next compound below
# input compound: COC1C(OC(=O)c2ccc(C)[nH]2)C(O)C(Oc2ccc3c(O)c(NC(=O)c4ccc(C(=O)Nc5c(O)c6ccc(OC7OC(C)(C)C(OC)C(OC(=O)c8ccc(C)[nH]8)C7O)c(C)c6oc5=O)cc4)c(=O)oc3c2C)OC1(C)C (stereo not shown) [Cmpd 8] ; wanted: its Prolif. (cpm) 23858
